# ASSAY COMMENT: Toxicity liver stage against HepG2, at 10uM
# Assay type: cell-based
# Design: test concentration 10 uM, cell line HepG2-A16-CD81EGFP
# SETUP CONDITIONS: human, HepG2-A16-CD81EGFP cells; read-out: INHIBITION
Reported cytotoxicity at 10 µM values for a set of molecules
Quick reminder: number only, in %, skip the unit.

# MOLECULE, cytotoxicity at 10 µM (%)
records = [
    ("Cc1ccc(Oc2c(F)cccc2OC[C@@H](N)CC(C)C)cc1", -8.94),
    ("Cc1nc(C(=O)N[C@H]2COC[C@@H]2N2CCCCC2)cs1", 15.5),
    ("Cc1cccc(NS(=O)(=O)c2cc(C(=O)O)oc2C)c1Cl", -14.6),
]

Prompt: I would be grateful if you could share the reported cytotoxicity at 10 µM for COc1c(CNC2(c3noc(C)n3)CCC2)c(C)nn1C .
Completion: 4.2

Prompt: Now the molecule Cc1cnn(CC(=O)N2CCC3(CCC(=O)N(CC(C)O)C3)CC2)c1 (centres undefined)
Completion: 3.05

Prompt: Cool, now O=C1C(Nc2ccc3nccnc3n2)CCN1c1ccccc1F (centres undefined)
Completion: -10

Prompt: Then O=C(NC1CC1)NC(c1cc(F)ccc1F)C1CC1 (centres undefined) ?
Completion: -12.8

Prompt: Here is the next molecule: CN1CCc2c(C#N)c(NCc3ccncc3)n3cnnc3c2C1
Completion: 10.8

Prompt: Further, for CC(C)CNC(=O)NC(=O)CNc1ccccc1SCC(C)C#N (centres undefined) ?
Completion: -8.05

Prompt: Lookup CN(C)S(=O)(=O)N1CCC2(CCCN(Cc3ccc(F)cc3)C2=O)C1 (centres undefined)
Completion: -9.67

Prompt: How about this molecule: O=C(NC1CC1)[C@@H]1CN(Cc2ccc3c(c2)OCO3)C[C@H]2OCC[C@H]21
Completion: -1.79

Prompt: What do you get for Cc1cccc(OCCNC(=O)CN2CCc3cncnc3C2)c1 ?
Completion: -6.65

Prompt: Entry to check: Cc1nc(C2CCCN(C(=O)c3cc4c(s3)CCCC4)C2)no1 (centres undefined)
Completion: -7.03

Prompt: // next record Cc1nc(C)n(CC2CCCN(Cc3nnc(-c4ccco4)o3)C2)n1 (centres undefined)
Completion: -8.33

Prompt: Same for OC(c1ccccn1)C1CCN(Cc2cc3n(n2)CCCNC3)CC1 (centres undefined)
Completion: 6.89

Prompt: Now the same for Cn1cccc1C(=O)N1CCN(Cc2ccncc2)c2ncccc2C1
Completion: -0.395

Prompt: Now the molecule COC(=O)CCN(CC1CCCO1)C(=O)Cc1ccc(OC)c(OC)c1 (centres undefined)
Completion: 4.08

----------
# ASSAY COMMENT: Toxicity liver stage against HepG2, at 10uM
# Assay type: cell-based
# Set-up: test concentration 10 uM, cell line HepG2-A16-CD81EGFP
# SETUP CONDITIONS: human, HepG2-A16-CD81EGFP cells; read-out: INHIBITION
RESULT TYPE: cytotoxicity at 10 µM (%)
Express it in %; write the number only.

Recorded cytotoxicity at 10 µM, per entry:
# MOLECULE, cytotoxicity at 10 µM (%)
rows = [
    ("CCCn1nc(C)c(CN(CCN(C)C)Cc2ccccn2)c1C", -0.641),
    ("NC(=O)Cn1ccnc1C1CCCN(CCSc2ccccc2)C1 (configuration not stated)", -2.65),
    ("COc1ccccc1CC(=O)NS(=O)(=O)c1ccc(NC(C)=O)cc1", -2.18),
    ("Cc1ccc(N2C[C@H]3OCC[C@H]3[C@H](C(=O)NC3CCC3)C2)nn1", -69.9),
    ("Cc1nnc(NC(=O)CN2CCCC2c2noc(C(C)C)n2)s1 (configuration not stated)", -9.05),
]

Prompt: Can you share its cytotoxicity at 10 µM? I mean this molecule: Cn1cc(N2CCN(c3ccc(C#N)cc3Br)CC2=O)cn1
Completion: -5.48

Prompt: Also check CN(Cc1ccc(F)cc1)C(=O)Cn1nc(-c2ccc(F)cc2)oc1=O
Completion: 8.68

Prompt: Entry to check: CS(=O)(=O)N1CCc2c(cccc2NC(=O)CC(F)(F)F)C1
Completion: 5.06

Prompt: Record: COc1cccc(CN(C)C(C)c2ccco2)c1OCCn1ccnc1 (configuration not stated)
Completion: -0.7

Prompt: Now the molecule Cc1ccc(CN2CC[C@H]3C(=O)N(c4cccnc4)CCO[C@H]3C2)o1
Completion: 7.8

Prompt: // same read-out, input: c1ccc(OC[C@H]2CCC[C@]23CN(Cc2nccs2)CCO3)nc1
Completion: 3.34

Prompt: Try the molecule CC(C)COCCC(=O)NCc1cn2cc(Br)ccc2n1
Completion: 4.26

Prompt: Consider next the molecule O=C(C1CCOCC1)N1C[C@H]2CNC[C@H]2C1 in the same way.
Completion: -8.58

Prompt: One more molecule: O=C(c1ccc2c(c1)COC2)N1CCC(Nc2ccccc2)CC1
Completion: -7.54

Prompt: Further, for CC(C)n1cnnc1Cn1c(=O)cnc2ccccc21 ?
Completion: -4.04

Prompt: Same thing, different molecule: N[C@H]1CN(C(=O)Cc2ccc(Cl)c(Cl)c2)C[C@@H]1C1CC1
Completion: -14.4

Prompt: CN(Cc1ncnn1C)C1CCN(c2sccc2C#N)C1=O (configuration not stated) , same question.
Completion: 10.2

Prompt: Same question for O=C(CN1CCCS1(=O)=O)Nc1ccc(OC2CCCC2)c(Cl)c1 please.
Completion: -8.87

Prompt: Same question for Cc1nnc(CN2CCN(CC(O)c3ccccc3)CC2)o1 (configuration not stated) please.
Completion: -18.9

Prompt: Then Cc1cc(C2CCCN(CCc3ccccn3)C2)n[nH]1 (configuration not stated) ?
Completion: -10.4

Prompt: Now give it for O=C(CSc1ccc2c(c1)OCCO2)NS(=O)(=O)c1cc(F)ccc1F too.
Completion: -3.47

Prompt: How about CCOc1ccc2[nH]c(=O)c(CN(C)CCc3cn[nH]c3)cc2c1 ?
Completion: 25.9

Prompt: Follow-up item: COc1cc(C)c(C2CC(=O)Nc3cc(NS(C)(=O)=O)ccc32)cc1C (configuration not stated)
Completion: -15

Prompt: What do we get for CN(CCOc1cccc(CNC(=O)C2CC2)c1)C1CCOCC1 ?
Completion: -7.12

Prompt: What would you report for Cc1ncnc2c1CCN(Cc1ccc3c(c1)OCO3)CC2 ?
Completion: -9.23

Prompt: Would you mind doing CC(C)CC(=O)N1CCCC1c1nccnc1Nc1ncccn1 (configuration not stated) as well?
Completion: -13.8

----------
# ASSAY COMMENT: Toxicity liver stage against HepG2, at 10uM
# Type: cell-based
# Design: test concentration 10 uM, cell line HepG2-A16-CD81EGFP
# SETUP CONDITIONS: human, HepG2-A16-CD81EGFP cells; read-out: INHIBITION
RESULT TYPE: cytotoxicity at 10 µM (%)
The figure you give is taken to be in %; do not add the unit.

Solved entries (count: 3):
# MOLECULE, VALUE
measured = [
    ("Cc1nnc(NC(=O)C2CSCN2C(=O)C2CCCC2)s1 (stereo unspecified)", -17.1),
    ("Nc1nc2c(c(N3CCOCC3)n1)CCN(C(=O)c1ccc[nH]1)CC2", -2.02),
    ("c1cncc(COCC2CN(Cc3cccnc3)Cc3ccnn3C2)c1 (stereo unspecified)", -136),
]

Prompt: Could you tell me which cytotoxicity at 10 µM is on file for Cc1ncsc1C(=O)NCc1ccc(-c2n[nH]cc2C(=O)N(C)C)cc1 ?
Completion: 0.522

Prompt: What would you report for COCCn1c2c(ccc1=O)CC(N)CC2 (stereo unspecified) ?
Completion: 9.77

Prompt: Now the same for O=C(c1ccc[nH]1)N1CCO[C@H]2CC(COCc3ccccn3)C[C@@H]21 (stereo partly specified)
Completion: 0.718

----------
# ASSAY COMMENT: Toxicity liver stage against HepG2, at 10uM
# Type: cell-based
# Design: test concentration 10 uM, cell line HepG2-A16-CD81EGFP
# SETUP CONDITIONS: human, HepG2-A16-CD81EGFP cells; read-out: INHIBITION
RESULT TYPE: cytotoxicity at 10 µM

Prompt: Query (molecule): COc1ccccc1-c1cc(NC(=O)CCS(=O)(=O)C2CCCC2)[nH]n1 ; field requested: cytotoxicity at 10 µM
Completion: -123%

Prompt: How about this molecule: CCC(NC(=O)CC1CCN(C(C)C)CC1)c1cn2cccnc2n1 (configuration not stated)
Completion: -11.3%

Prompt: What about NC(=O)CN1CCC(C(=O)NCC(O)c2cccc(F)c2)CC1 (configuration not stated) ?
Completion: 10.8%

Prompt: Another molecule: COC(=O)CC(NC(=O)c1ccc(OC)cc1OC)c1cccs1 (configuration not stated)
Completion: -0.554%

Prompt: // query: CN1CCC(c2n[nH]cc2-c2ccnc(N)c2)C1 (configuration not stated)
Completion: 3.79%

Prompt: Proceed to O=C(Cc1ccsc1)N1CCc2ccc(=O)n(CC3CC3)c2CC1
Completion: 6.13%
